- Tested on: LOX IMVI
- Test details: NCI tumour cell line growth inhibition, 48 h
Calls of active or inactive are those of the source. No stated cut-off is given here; in the data, active = GI50 up to about 1.1 µM and inactive = higher.
Pick one: t for active, f for inactive

INSERT INTO measurements (molecule, tested_on, assigned_class) VALUES
  ('COc1c(-c2nc3ccc(N4CCN(C)CC4)nc3[nH]2)cc(OC)c2[nH]c(COC(C)=O)nc12', 'LOX IMVI', 'f');

Qu. Look up the recorded call for `O=C(CNC(=O)OCc1ccccc1)Oc1ccccc1` in this test.
Ans. f

Qu. Look up the recorded call for CCC1OC2C(CC=C(C)C)=C3OC(C)(O)C(C)(CC)C(OC(C)=O)C3=C3OC(=O)C=C1C32 (stereo not given) in this test.
Ans. f

Qu. Look up the recorded call for `Cc1[nH]c(-c2ccccc2)c(-c2ccc(Cl)cc2)c1C(=O)ONC(=O)c1ccccc1` in this test.
Ans. f

Qu. Look up the recorded call for `Cc1nc2ccccc2c(=O)n1NC(=O)c1ccccc1[N+](=O)[O-]` in this test.
Ans. f

Qu. Look up the recorded call for `Cc1cc(/N=C/c2ccc(N(C)C)cc2)n(-c2ccccc2)n1` in this test.
Ans. f

* * *

- Tested on: SK-OV-3
- Test details: NCI tumour cell line growth inhibition, 48 h
Activity calls are given as the source filed them. No stated cut-off is given here; in the data, active = GI50 up to about 1.1 µM and inactive = higher.
Assignment: determine reported GI50 for the given compounds.

# annotated cases, reported GI50 shown
INSERT INTO results (compound, measurement_label, result) VALUES
  ('COc1c(-c2nc3ccc(N4CCN(C)CC4)nc3[nH]2)cc(OC)c2[nH]c(COC(C)=O)nc12', 'GI50', '14.5 µM (inactive)'),
  ('Clc1ccc(SC(/C=C/NNC2=NN=C(c3ccccc3)C(c3ccccc3)N2)c2ccccc2)cc1 (centres undefined)', 'GI50', '68.1 µM (inactive)'),
  ('C/C(=N/S(=O)(=O)c1ccc(Cl)c(Cl)c1)OCC(C)(C)C', 'GI50', '> 100 µM (inactive)');

Qu. Would you mind telling me what GI50 value was observed for COc1cccc(N2C(=O)C3C4C=C5c6ccccc6N(c6ccccc6)C5(C3C2=O)[C@H]2C(=O)N(c3cccc(OC)c3)C(=O)[C@@H]42)c1 (some centres undefined) ?
Ans. > 100 µM (inactive)

* * *

- System: RPMI-8226
- Test details: NCI tumour cell line growth inhibition, 48 h
The source made the active and inactive calls. Rule as the data show it: active = GI50 up to about 1.1 µM and inactive = higher.
Pick one: active, inactive

INSERT INTO assay_data (compound, assigned_class) VALUES
  ('O=C(CNC(=O)OCc1ccccc1)Oc1ccccc1', 'inactive'),
  ('CC(Cc1ccc(O)cn1)(NC(=O)c1ccccc1)C(=O)O (centres undefined)', 'inactive'),
  ('Cc1ccc(S(=O)(=O)N(C=O)N=C2CCN(Cc3ccccc3)CC2)cc1', 'inactive'),
  ('O=C(N/N=C/c1ccc(Br)cc1)N/N=C/c1ccc(Br)cc1', 'inactive'),
  ('N#Cc1cc(-c2nc3cc(F)ccc3s2)ccc1N', 'inactive'),
  ('CSc1ncnc2c1ncn2CCC#N', 'inactive');

Qu. Look up the recorded call for Nc1ncnc2c(C3OC(CO)C(O)C3O)c[nH]c12 (centres undefined) in this test.
Ans. active

Qu. Look up the recorded call for `O=C(NNC(=O)c1ccccc1O)c1cccc(Br)c1` in this test.
Ans. inactive

Qu. Look up the recorded call for CCCCCCCCCCCCCCC1OC(=O)c2ccccc21 (centres undefined) in this test.
Ans. inactive

Qu. Look up the recorded call for COC1OC(C)C(NC(=O)OCC(Cl)(Cl)Cl)C2OC(C)(C)OC12 (centres undefined) in this test.
Ans. inactive

Qu. Look up the recorded call for `CC(=O)OC1(C)C=CC(=O)C=C1` in this test.
Ans. inactive

* * *

- Test system: SK-MEL-5
- Test details: NCI tumour cell line growth inhibition, 48 h
Active and inactive are the calls of the source. No stated cut-off is given here; in the data, active = GI50 up to about 1.1 µM and inactive = higher.
Measurement label: GI50

# annotated cases, reported GI50 shown
INSERT INTO results (compound, tested_on, measurement_label, result) VALUES
  ('CCCCN(C(=O)c1ccccc1)C1CCC(=O)c2[nH]c3ccccc3c21 (stereo not given)', 'SK-MEL-5', 'GI50', '18.7 µM (inactive)'),
  ('CC(C)(C)c1cc(C(=O)C2Cc3ccccc3C(=O)O2)cc(C(C)(C)C)c1O (stereo not given)', 'SK-MEL-5', 'GI50', '12.6 µM (inactive)'),
  ('O=S(=O)(N/C(=N\O)Nc1ccc(Cl)cc1)c1cc(C(F)(F)F)cc(C(F)(F)F)c1', 'SK-MEL-5', 'GI50', '18 µM (inactive)'),
  ('CC(CNCCCNCCNCCCNCO)[N+](=O)[O-] (stereo not given)', 'SK-MEL-5', 'GI50', '16.3 µM (inactive)');

From here, focus on the item given below.
Qu. Would you mind telling me what GI50 value was observed for CC1C[C@]2(C)C(=O)N(c3ccccc3)C(=N)[C@@H]2N(C)c2ccccc21 (stereo not given in full) ?
Ans. > 100 µM (inactive)

* * *

Assignment: determine reported GI50 for the given compounds.
- Test system: Hs-578T
- Test details: NCI tumour cell line growth inhibition, 48 h
Activity calls are given as the source filed them. Cut-off read from the data, not from the text of the source: active = GI50 up to about 1.1 µM and inactive = higher.

INSERT INTO results (compound, result) VALUES
  ('CC(=O)OC/C=C/[C@H](O[Si](C)(C)C(C)(C)C)[C@@H](O)/C=C/COC(C)=O', '> 100 µM (inactive)'),
  ('CC(C)(C)OC(=O)N1C(OP(=O)(Oc2ccccc2)Oc2ccccc2)=CSc2ccccc21', '45.8 µM (inactive)'),
  ('O=[N+]([O-])c1cccc2nccc(NCC(O)CO)c12 (centres undefined)', '7.8 µM (inactive)'),
  ('Cc1cc2oc(=O)c(Cl)c(Cl)c2c(C)c1Cl', '2.59 µM (inactive)'),
  ('Oc1c(Cl)c(Cl)c(Cl)c(Cl)c1Cl [PENTACHLOROPHENOL]', '35.2 µM (inactive)'),
  ('Cc1c(Cl)c(=O)oc2cc(OCC(=O)c3ccccc3)ccc12', '> 100 µM (inactive)');

Give GI50 for each listed item.
1. N=c1oc2ccc(Cl)cc2cc1C(=O)NCc1ccccc1
2. Cc1cc2oc(C)c(S(=O)(=O)NC(=O)Nc3ccc(Cl)cc3)c(=O)c2c(=O)o1
3. CC1=CP(=O)(c2c(C(C)C)cc(C(C)C)cc2C(C)C)CCC1Cl (centres undefined)
4. O=c1c2cccnc2[nH]c2ccc3scnc3c12
5. O/N=C1\CSc2ccccc2C1
6. N#CSC1CCCCNC1=O (centres undefined)
7. O=C(NNC(=O)c1ccccc1O)c1cccc(Br)c1

Ans.
1: 30.5 µM (inactive); 2: > 100 µM (inactive); 3: 27.5 µM (inactive); 4: > 10 µM (inactive); 5: 41.8 µM (inactive); 6: 16.1 µM (inactive); 7: > 66.7 µM (inactive)

Give GI50 for each listed item.
1. CC(=O)OC(/C=C/c1ccccc1)=C(OC(C)C)/C1=C(\c2ccccc2)SCCCSC1=O
2. [N-]=[N+]=Nc1ccc(NCCCCCC(=O)ON2C(=O)CCC2=O)c([N+](=O)[O-])c1

Ans.
1. > 100 µM (inactive)
2. < 0.01 µM (active)

Give GI50 for each listed item.
1. CC(Cc1ccc(O)cn1)(NC(=O)c1ccccc1)C(=O)O (centres undefined)
2. N#Cc1c(NC(=S)NC(=O)c2ccccc2)nc2c(c1-c1ccccc1)CCCC2
3. COc1c(-c2ccc3c(c2)OCO3)oc2cc3c(c(OC)c2c1=O)OCO3 [MELITERNATIN]
4. COC(=O)/C(=C/c1ccc(OC)cc1)c1cc(OC)c(OC)c(OC)c1
5. CCCNC(=O)Nc1ccc2c(c1)Cc1cc(N(CCCl)CCCl)ccc1-2

Ans.
1: > 100 µM (inactive); 2: 17 µM (inactive); 3: 31.1 µM (inactive); 4: 0.957 µM (active); 5: 25.6 µM (inactive)

Give GI50 for each listed item.
1. C[C@]12CC[C@@H]3c4ccc(OC(=O)c5ccccc5)cc4CC[C@H]3[C@@H]1CCC2OC(=O)c1cccc2c(=O)c3ccccc3[nH]c12 (some centres undefined)
2. COc1nc2c(c(=O)n1C)NC(C(O)C(O)CO)C=N2 (centres undefined)
3. CC1(C)CC(=O)C2=C(C1)NC(SCC(=O)O)=C(C#N)C2c1ccc(Br)cc1 (centres undefined)
4. CCCCCCC1OC23OC1CCC2C(O)CCC3O (centres undefined)

Ans.
1: 18.1 µM (inactive); 2: > 10 µM (inactive); 3: > 100 µM (inactive); 4: > 100 µM (inactive)

* * *

- System: HL-60
- Test details: NCI tumour cell line growth inhibition, 48 h
Calls of active or inactive are those of the source. Cut-off read from the data, not from the text of the source: active = GI50 up to about 1.1 µM and inactive = higher.
Pick one: Yes for active, No for inactive

Here's what some known entries look like.
INSERT INTO measurements (compound, tested_on, assigned_class) VALUES
  ('CN(C)CC1CCC/C(=C\c2ccc(Cl)c(Cl)c2)C1=O (configuration not stated)', 'HL-60', 'No'),
  ('Cc1cc(NC(=O)NC(=O)c2ccccc2[N+](=O)[O-])ccc1Oc1ncc(Cl)cn1', 'HL-60', 'Yes'),
  ('Cc1cc2c(c3oc(C(O)(CO)C4CO4)cc(=O)c13)C(=O)c1c(O)cccc1C2=O (configuration not stated)', 'HL-60', 'Yes'),
  ('CCNc1nc(N)c(C(=O)c2ccc(Cl)cc2)s1', 'HL-60', 'No'),
  ('N#Cc1nc(C(=O)c2ccccc2)oc1N', 'HL-60', 'No'),
  ('CC(C)CC(N)C(=O)NC(CNC(CCC(N)=O)C(=O)NC(CC(C)C)C(=O)NC(CC(C)C)C(=O)O)Cc1ccc2ccccc2c1 (configuration not stated)', 'HL-60', 'No'),
  ('CC(C)(C)OC(=O)N1C(OP(=O)(Oc2ccccc2)Oc2ccccc2)=CSc2ccccc21', 'HL-60', 'No'),
  ('O=C(O/N=C1/CCC/C1=C\c1ccccc1)c1ccc([N+](=O)[O-])cc1', 'HL-60', 'No'),
  ('Cc1cc(/N=C/c2ccc(N(C)C)cc2)n(-c2ccccc2)n1', 'HL-60', 'No'),
  ('O=C(CNC(=O)OCc1ccccc1)Oc1ccccc1', 'HL-60', 'No');

Qu. Look up the recorded call for CC(=O)OC12c3ccccc3C(c3ccccc31)C1C(=O)N(c3ccccc3O)C(=O)C12 (configuration not stated) in this test.
Ans. No

Qu. Look up the recorded call for `CCOC(=O)C(=Cn1c(=S)[nH]c2ccc([N+](=O)[O-])cc21)C(=O)OCC` in this test.
Ans. No

Qu. Look up the recorded call for `CN1C2(c3ccccc3)C(C(=O)c3ccccc3)=C(C(=O)c3ccccc3)C1(c1ccccc1)c1c(-c3ccccc3)sc(-c3ccccc3)c12` in this test.
Ans. No

Qu. Look up the recorded call for `CC[N+](C)(C)c1ccc(C(=C2C=CC(=[N+](C)C)C=C2)c2ccc(N(C)C)cc2)cc1` in this test.
Ans. No

meta.source: ChEMBL document CHEMBL1201862
